From: the supplement of paper PMC10201428

test system: VchCAST RNA-guided transposition machinery (E. coli BL21(DE3) host, lacZ target); experiment: relative integration efficiency (T-RL orientation) vs wild-type transposon end (log2 (normalized fold change)); transposon end mutated: left end; higher = more efficient transposition
EXPERIMENTAL_ENDPOINT: relative integration efficiency (log2)
The answer should be written as a number, with no unit following it.

Please review the following examples before continuing.
AATGTTGTTGATGCAACCATAAAGTGTATAAATATAATTATTTATAATCAGCAACTTAACCACAAAACAACCATATATTGTATAGAGACAAAACAACCATAAGTTGTATAAAATGTGAATCGAGTATTTCAGCAAAACTACTGCAGTAAGAA : -4.69
AATGTTGTTGATGCAACCATAAAGTGATATTTAATAATTACAACCATATATTGATATCTCTTTATAATCAGCAACTTAACCACAAAAACAAAACAACCATAAGTTGATATTTTTGTGAATCGAGTATTTCAGCAAAACTACTGCAGTAAGAA : -4.31
AATGTTGTTGATGCAACCATAAAGTGATATTTAATAATTATTTATAATCAGCAACTTAACCACAAAACAACCATATATTGATATCGACACCCCACCAACGCCTGGTCGCGGGGGTGTCCGATCTGATTTCAGCAAAACTACTGCAGTAAGAA : -2.44

Please find the next sequence below.
Q: Reported relative integration efficiency (log2), sequence AATGTTGTTGATGCAACCATAAAGTGATATTTAATAATTATTTATAATCAGCAACTTAACCACAAAACAACCATATATTGATATCTCACAAAACACAACGCCTGGTCGCGGGGGTGTCCGATCTGATTTCAGCAAAACTACTGCAGTAAGAA : ____
A: -2.63

====

tested on: VchCAST RNA-guided transposition machinery (E. coli BL21(DE3) host, lacZ target); assay: relative integration efficiency (T-LR orientation) vs wild-type transposon end (log2 (normalized fold change)); transposon end mutated: right end (5 bp flank + 75 bp right end); higher = more efficient transposition
EXPERIMENTAL_ENDPOINT: relative integration efficiency (log2)
Please respond with just the number, no unit label.

Here is how some sequences turned out for relative integration efficiency (log2).
ACATTTGTTGATACAACCATATATTGATATCTCCAACCATAAGTTGATATTTTTCACAACCATAAGTTGATATTTTCTCTGATCATAGTCAGACCAACATTGCTACGACCCGTATTCGCACCGACAC : -0.31
ACATTTGTTCTTACAACCATAAAATGATAATTACACCCATAAATTGATAATTATCACACCCATAAATTGATATTGCCTCTGATCATAGTCAGACCAACATTGCTACGACCCGTATTCGCACCGACAC : -3.55
ACATTTGTTGATACAACCATAAGTTGATATTTTCAACCATATATTGATATCTCTCACAACCATAAGTTGATATTTTCTCTGATCATAGTCAGACCAACATTGCTACGACCCGTATTCGCACCGACAC : -0.0553
ACATTTGTTGATACAACCATAAAATGATAATTACACCCATAAATTGATAATTATCACACCCATAAATTGATATTGCCTGAGATCATAGTCAGACCAACATTGCTACGACCCGTATTCGCACCGACAC : 0.172
ACATTTGTTGATACAACCATAAAATGATAATTACAACCATATATTGATATCTCTCACAACCATATATTGATATCTCCTCTGATCATAGTCAGACCAACATTGCTACGACCCGTATTCGCACCGACAC : 0.0166

Q: Which relative integration efficiency (log2) reading was recorded for the sequence ACATTTGTTGATACAACCATAAAATGATAATTAATAATTATTTATAACACCCATAAATTGATAATTATCAACAAACGCCCGGTCGCGGTACTCTGATCATAGTCAGACCAACATTGCTACGACCCGT ?
A: 0.00268

Q: Dear colleague, I am looking for the recorded relative integration efficiency (log2) of the following sequence: ACATTTGTTGATACAACCATAAAAGGATAATTACACCCATAAATTGATAATTATCCCACCCCATTTAACTATAACGCTCTGATCATAGTCAGACCAACATTGCTACGACCCGTATTCGCACCGACAC
A: 2.28

Q: What value of measured relative integration efficiency (log2) is listed for ACATTTGCTGATACTACCATTTAATGATAATAACACCCCTAAAATGATAATTATCACACCCAATTTAACTATAACGCTCTGATCATAGTCAGACCAACATTGCTACGACCCGTATTCGCACCGACAC ?
A: -4.07

Q: What does the record list as relative integration efficiency (log2) for ACATTTGTTGATACAACCATAAAATGATAATTAATAATTATTTATAATCAGCAACTTAACCACAAAACACCCATAAATTGATAATTAACAAAAGTGGGTATTTAACTATAACGTGTGAATCGAGTAT ?
A: -1.88

Q: Fill in the blank: the reported relative integration efficiency (log2) of ACATTTGTTGATACAACCATAAAATGATAATTACACCCATAAATTGATAATTATCACACCCATAAATTGATATTGCCTCTGATCCAACCATAAAATGATAATTAATAGTCAGACCAAGCACCGACAC is ____.
A: 0.046

====

Entries and their relative integration efficiency (log2)
test system: VchCAST RNA-guided transposition machinery (E. coli BL21(DE3) host, lacZ target); test: relative integration efficiency (T-RL orientation) vs wild-type transposon end (log2 (normalized fold change)); transposon end mutated: left end; higher = more efficient transposition
Give your answer as a number; write no unit.

AATGTTGTTGATGCAACCATAAAGTGATATTTAATAATTATTTATAATCAGCAACTTAACCACAAAACAACCATATATTGATATCTCACAAAACAACCAGCCTGGTCGCGGGGGTGTCCGATCTGATTTCAGCAAAACTACTGCAGTAAGAA : -2.22
AATGTTGTTGATGCAACCATAAAGTGATATTTAATAATTATTTATAATCAGCAACTTAACCACAAAACAACCATATATTGATATCTACACCCCACCAACGCCTGGTCGCGGGGGTGTCCGATCTGATTTCAGCAAAACTACTGCAGTAAGAA : -2.46

Q: Could you share what relative integration efficiency (log2) was measured for AATGTTGTTGATGCAACCATAAAGTGATATTTACAACCATATATTGATATCTCACAAAACAACCATAAGTTGATATTTTTGTGAATCGAGTATTTCAGCAAAACTACTGCAGTAAGAAAGTTACTTCGTGGTATGGGAGGATCAAGGAGCCA , tested on VchCAST RNA-guided transposition machinery (E. coli BL21(DE3) host, lacZ target)?
A: -2.61

Q: What relative integration efficiency (log2) appears in the records for this sequence with VchCAST RNA-guided transposition machinery (E. coli BL21(DE3) host, lacZ target)? AATGTTGTTGATGCAACCATAAAGTGATATTTAATAATTATTTATAATCAGCAACTTAACCACAAAAGTTGGTATATAACTATAGAGACAAAAGTTGGTATTCAACTATAAAATGTGAATCGAGTATTTCAGCAAAACTACTGCAGTAAGAA
A: -6.13

====

tested on: VchCAST RNA-guided transposition machinery (E. coli BL21(DE3) host, lacZ target); test: relative integration efficiency (T-RL orientation) vs wild-type transposon end (log2 (normalized fold change)); transposon end mutated: right end (5 bp flank + 75 bp right end); higher = more efficient transposition
List of relative integration efficiency (log2) values.
API doc: respond with a numeric literal and nothing else, no unit.

ACATTTGTTGATACCACCATAAAATGATAATTACACCCCTACATTGATAATTATCACACCCAATTTAACTATAACGCTCTGATCATAGTCAGACCAACATTGCTACGACCCGTATTCGCACCGACAC : -3.75
ACATTTGTTGATACAACCATAAAATGATAATTACACCCATAAATTCTATATTATCACACCCATAAATTGATATTGCCTCTGATCATAGTCAGACCAACATTGCTACGACCCGTATTCGCACCGACAC : -2

Kindly consider the entry below.
Q: For the sequence ACATTTGTTGATACAACCATAAAATGATAATTACACCCATAAATGGATCATTATCACACCCAATTTAACTATAACGCTCTGATCATAGTCAGACCAACATTGCTACGACCCGTATTCGCACCGACAC , what relative integration efficiency (log2) is on record?
A: -1.63

====

system: VchCAST RNA-guided transposition machinery (E. coli BL21(DE3) host, lacZ target); experiment: relative integration efficiency (T-LR orientation) vs wild-type transposon end (log2 (normalized fold change)); transposon end mutated: right end (5 bp flank + 75 bp right end); higher = more efficient transposition
Class Y: relative integration efficiency (log2) at least 0.9. Class N: relative integration efficiency (log2) below 0.9.

ACATTTGTTGATACAACCATCAAATGATAATTCCACCCCTACATTGATAATTATCACACCCAATTTAACTATAACGCTCTGATCATAGTCAGACCAACATTGCTACGACCCGTATTCGCACCGACAC : N
ACATTTGTTGATACAACCATAAAACGATAATTACACCCATAAATTCATAATTATCACACCCAATTTAACTATAACGCTCTGATCATAGTCAGACCAACATTGCTACGACCCGTATTCGCACCGACAC : Y
ACATTTGTTGATACAACCATAAAATGATAATTACACCCATAAATTGATAATTACCACTCCCAATTTAACTATAACGCTCTGATCATAGTCAGACCAACATTGCTACGACCCGTATTCGCACCGACAC : Y

Q: Identify whether the reported relative integration efficiency (log2) of the following sequence is 0.9 or greater: ACATTTGTTGATACAACCATAAAGTGATATTTACAACCATAAGTTGATATTTTTCACAACCATAAGTTGATATTTTCTCTGATCATAGTCAGACCAACATTGCTACGACCCGTATTCGCACCGACAC
A: N

Q: State whether the measured relative integration efficiency (log2) reaches 0.9, counting equality as reaching it, for ACATTTGTTGATACAACCATAAAATGATAATTACACCCATAAAAACTTAATTATCACACCCATAAATTGATATTGCCTCTGATCATAGTCAGACCAACATTGCTACGACCCGTATTCGCACCGACAC
A: N

Q: Hi team, for ACATTTGTTCATCCAACCATAAAATGATAATTACACCCATAAATTCATCATTATCACACCCAATTTAACTATAACGCTCTGATCATAGTCAGACCAACATTGCTACGACCCGTATTCGCACCGACAC , is the recorded relative integration efficiency (log2) at or above 0.9?
A: N

Q: Threshold query (relative integration efficiency (log2) >= 0.9) on ACATTTGTTGATACAACCCTAAAATGATAATTACACCCATAAATTCATCATTATCACCCCCAATTTAACTATAACGCTCTGATCATAGTCAGACCAACATTGCTACGACCCGTATTCGCACCGACAC
A: N
